Task for the reader: assign each of the following sequences its reported apparent KD of MS2 coat protein.
tested on: MS2 coat protein; assay: apparent KD of MS2 coat protein; designed switch direction (-1 OFF switch, 1 ON switch): -1; higher = weaker reporter binding; details: input ligand: none
I only need the number, in µM, no unit after it.

// sample CUGCUGGAGCUUUGCUUUAGUCGUACAUGAGGAUCACCCAUGUAGGAUAUGGUAGGCUUUGCUUACUAGAAGGAUAGAGUGAUC [salish99_ExNG3_r04_605] (Eterna round: R96, puzzle: Exclusion NG 3) , its apparent KD of MS2 coat protein was 0.0942

Consider CCUAGUUGGUAAGGAUAUCCUACAUUAUUCUGACCCGUGCAAGCUACAUGAGGAUCACCCAUGUGGGAGAAGGUGCGUUAACGU [Design 8] (Eterna round: R96, puzzle: Exclusion NG 2) . Its measured apparent KD of MS2 coat protein is 0.0551

According to the records, this sequence UGAUUGUUUACCAGAUUAUACAUGAGGAUCACCCAUGUAGAUCCUACGUGCACGUUAUGCAGCUCGUCUUAUUCCCA [Sensor-V1 #73] (Eterna round: R97, puzzle: Sensor, turn-off variant 1) displays apparent KD of MS2 coat protein of 0.0441

// apparent KD of MS2 coat protein value for GGUGCUGGCGCGUCGGUGUUGGUGCAAUAAGCUUGUGAAACAUGAGGAUCACCCAUGUCCUCAUAAGCUCGUCUUAU [salish99_TOv2_r2_086] (Eterna round: R96, puzzle: Sensor v3, turn-off variant 2) : 0.0177

Consider AUAUCACAUGAGGAUCACCCAUGUCAGGAUAUGAUACUAUGUACUUCGGUACAUAGUAUCAGAAGGGAUAUGAA [Ex1-3: 66] (Eterna round: R96, puzzle: Exclusion 1) . Its measured apparent KD of MS2 coat protein is 0.0403
